target: EGFR L858R/C797S (Homo sapiens, UniProt P00533, C797S/L858R); experiment: Biochemical EGFR kinase assay (Lance Ultra TR-FRET), double mutant L858R/C797S; settings: IC50 L858R/C797S (nM) 100 μM ATP, 100 μM ATP
Sequence (P00533 25-1210 C797S/L858R): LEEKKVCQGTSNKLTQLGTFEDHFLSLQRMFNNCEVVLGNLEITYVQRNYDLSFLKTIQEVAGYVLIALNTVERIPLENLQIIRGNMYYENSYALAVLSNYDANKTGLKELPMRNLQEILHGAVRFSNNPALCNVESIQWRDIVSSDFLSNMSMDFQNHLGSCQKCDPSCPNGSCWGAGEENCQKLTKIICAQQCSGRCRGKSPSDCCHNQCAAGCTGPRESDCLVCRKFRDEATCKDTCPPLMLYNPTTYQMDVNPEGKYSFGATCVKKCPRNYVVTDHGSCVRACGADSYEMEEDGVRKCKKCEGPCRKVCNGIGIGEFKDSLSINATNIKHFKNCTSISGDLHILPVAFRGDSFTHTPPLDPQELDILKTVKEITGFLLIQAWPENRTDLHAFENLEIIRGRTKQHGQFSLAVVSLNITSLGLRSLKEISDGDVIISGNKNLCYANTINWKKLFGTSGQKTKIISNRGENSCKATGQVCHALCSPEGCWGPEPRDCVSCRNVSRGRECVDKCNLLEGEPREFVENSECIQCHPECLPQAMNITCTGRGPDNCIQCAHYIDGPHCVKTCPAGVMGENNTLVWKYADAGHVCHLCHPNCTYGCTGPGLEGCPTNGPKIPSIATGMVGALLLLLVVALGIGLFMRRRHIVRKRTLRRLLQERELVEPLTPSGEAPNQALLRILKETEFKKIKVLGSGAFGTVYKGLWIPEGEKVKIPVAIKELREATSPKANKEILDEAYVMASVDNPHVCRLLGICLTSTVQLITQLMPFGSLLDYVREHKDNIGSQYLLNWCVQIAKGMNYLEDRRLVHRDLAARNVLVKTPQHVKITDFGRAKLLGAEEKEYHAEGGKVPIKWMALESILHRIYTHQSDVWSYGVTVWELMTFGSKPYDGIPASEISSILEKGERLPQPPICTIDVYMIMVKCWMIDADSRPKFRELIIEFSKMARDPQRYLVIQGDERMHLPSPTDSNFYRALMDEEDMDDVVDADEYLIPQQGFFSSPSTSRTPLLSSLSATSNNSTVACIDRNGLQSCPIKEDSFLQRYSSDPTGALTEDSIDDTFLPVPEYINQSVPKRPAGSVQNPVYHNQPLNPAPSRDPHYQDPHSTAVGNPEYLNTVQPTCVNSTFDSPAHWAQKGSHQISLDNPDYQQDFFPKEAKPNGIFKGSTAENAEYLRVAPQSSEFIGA
MEASURED ENDPOINT: IC50 (nM)
Your answer is read as nM, so omit the unit and give the number.

# COMPOUND, MEASURED ENDPOINT, RESULT UNIT, NUMERIC READOUT
records = [
    ("Cn1nc(-c2cnc(Nc3ccnc(-c4cnn(S(=O)(=O)C5CC5)c4)n3)cc2N[C@H]2CCC[C@H](CO)C2)cc1C(F)(F)F", "IC50", "nM", 59.9),
]

Pending compound:
Noted for "CN(CC(F)F)C[C@H]1CC[C@@H](Nc2cc(Nc3ccnc(-c4cnn(S(=O)(=O)C5CC5)c4)n3)ncc2-c2cc(C(F)(F)F)n(C)n2)CC1" : its IC50 reads 819

----------
target: EGFR del19/C797S (Homo sapiens, UniProt P00533, C797S/DEL746-750); experiment: Biochemical EGFR kinase assay (Lance Ultra TR-FRET), double mutant del19/C797S; details: Km ATP; read-out: IC50 del19/C797S, Km ATP
Sequence (P00533 with tags, fused parts or gaps DEL746-750/C797S): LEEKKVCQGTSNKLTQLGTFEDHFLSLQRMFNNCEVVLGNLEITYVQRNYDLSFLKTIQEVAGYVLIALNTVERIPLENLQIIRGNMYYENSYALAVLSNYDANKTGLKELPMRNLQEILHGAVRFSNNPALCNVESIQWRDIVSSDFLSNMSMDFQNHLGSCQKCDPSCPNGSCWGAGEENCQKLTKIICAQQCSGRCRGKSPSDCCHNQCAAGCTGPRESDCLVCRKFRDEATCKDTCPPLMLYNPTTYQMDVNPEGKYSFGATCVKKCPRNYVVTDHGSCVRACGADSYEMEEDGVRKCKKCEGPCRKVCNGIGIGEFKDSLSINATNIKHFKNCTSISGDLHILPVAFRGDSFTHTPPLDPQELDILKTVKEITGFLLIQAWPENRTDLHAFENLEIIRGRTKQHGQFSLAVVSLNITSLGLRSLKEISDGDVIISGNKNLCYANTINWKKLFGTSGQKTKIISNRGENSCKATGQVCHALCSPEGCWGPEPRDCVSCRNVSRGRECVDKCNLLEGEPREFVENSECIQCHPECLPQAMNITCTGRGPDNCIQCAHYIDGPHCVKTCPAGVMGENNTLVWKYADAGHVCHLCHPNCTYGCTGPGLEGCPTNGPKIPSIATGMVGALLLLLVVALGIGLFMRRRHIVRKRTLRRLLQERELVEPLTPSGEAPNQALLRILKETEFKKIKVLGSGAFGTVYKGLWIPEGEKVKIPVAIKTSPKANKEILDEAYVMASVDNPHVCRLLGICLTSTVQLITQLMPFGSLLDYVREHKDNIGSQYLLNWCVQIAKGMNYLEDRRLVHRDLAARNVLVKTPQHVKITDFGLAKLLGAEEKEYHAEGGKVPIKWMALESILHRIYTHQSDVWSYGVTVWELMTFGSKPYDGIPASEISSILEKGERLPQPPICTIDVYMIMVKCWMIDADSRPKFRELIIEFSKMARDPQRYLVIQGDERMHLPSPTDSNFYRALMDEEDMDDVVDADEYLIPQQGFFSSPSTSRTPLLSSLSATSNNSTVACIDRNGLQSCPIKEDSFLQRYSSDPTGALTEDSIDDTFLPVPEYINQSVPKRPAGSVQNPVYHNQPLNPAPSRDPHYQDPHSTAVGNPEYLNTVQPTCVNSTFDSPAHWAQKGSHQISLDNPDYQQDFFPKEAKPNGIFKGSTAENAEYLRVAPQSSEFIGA
MEASURED ENDPOINT: pIC50
Here pIC50 is given on a logarithmic scale as minus log10 of the concentration in mol/L.

# MOLECULE, TEST SYSTEM, pIC50
rows = [
    ("C[C@]1(O)CC[C@@H](Nc2cc(Nc3ccnc(-c4cnn(S(=O)(=O)C5CC5)c4)n3)nnc2-c2ccn(C(F)F)n2)CC1", "EGFR del19/C797S (Homo sapiens, UniProt P00533, C797S/DEL746-750)", 8.16),
    ("COCn1ccc(-c2cnc(Nc3ccnc(-c4cnn(S(=O)(=O)C5CC5)c4)c3)nc2N[C@H]2CC[C@@](C)(O)CC2)n1", "EGFR del19/C797S (Homo sapiens, UniProt P00533, C797S/DEL746-750)", 8.64),
    ("Cc1nn(CC(F)(F)F)cc1-c1nccc(Nc2cc(N[C@H]3CC[C@@H](CCO)CC3)c(-c3ccn(CC(F)F)n3)cn2)n1", "EGFR del19/C797S (Homo sapiens, UniProt P00533, C797S/DEL746-750)", 8.21),
    ("Cn1nc(-c2cnc(Nc3ccnc(-c4cnn(S(=O)(=O)C5CC5)c4)c3)nc2N[C@H]2CC[C@@](C)(O)CC2)cc1C(F)(F)F", "EGFR del19/C797S (Homo sapiens, UniProt P00533, C797S/DEL746-750)", 8.01),
]

Noted for CC1(O)CCC(Nc2cc(Nc3ccnc(N4CC(O)C(F)(F)C4)n3)ncc2-c2ccn(C(F)F)n2)CC1 (stereo not drawn) : its pIC50 reads 7.27

Noted for "C[C@]1(O)CC[C@@H](Nc2nc(Nc3ccnc(-c4cnn(S(=O)(=O)C5CC5)c4)c3)ncc2-c2ccn(CC(F)(F)F)n2)CC1" : its pIC50 reads 8.02

Noted for "C[C@]1(O)CC[C@@H](Nc2cc(Nc3ccnc(N4CCC[C@H](O)C4)n3)ncc2-c2ccn(C(F)F)n2)CC1" : its pIC50 reads 6.70

Noted for "Cc1nn(CC(F)(F)F)cc1-c1cc(Nc2ncc(-c3cc(C(F)(F)F)n(C)n3)c(N[C@H]3CC[C@@](C)(O)CC3)n2)ccn1" : its pIC50 reads 8.09

Noted for "C[C@]1(CO)C[C@@H](Nc2cc(Nc3ccnc(-c4cnn(S(=O)(=O)C5CC5)c4)n3)ncc2-c2ccn(C(F)F)n2)C1" : its pIC50 reads 7.78

----------
biological target: EGFR del19/C797S (Homo sapiens, UniProt P00533, C797S/DEL746-750); test: Biochemical EGFR kinase assay (Lance Ultra TR-FRET), double mutant del19/C797S; details: Km ATP; read-out: IC50 del19/C797S, Km ATP
IC50 reference
Your answer is read as nM, so omit the unit and give the number.

Check out these entries, answers already filled in.
# SMILES CODE, NUMERIC READOUT
rows = [
    ("C[C@]1(O)CC[C@@H](Nc2cc(Nc3nc(-c4cnn(S(=O)(=O)C5CC5)c4)ncc3F)ncc2-c2ccn(CC(F)F)n2)CC1", 4.6),
    ("O=S(=O)(C1CC1)n1cc(-c2ncc(F)c(Nc3cc(N[C@H]4CC[C@@H](CCO)CC4)c(-c4ccn(CC(F)F)n4)cn3)n2)cn1", 37.3),
    ("C[C@]1(O)CC[C@@H](Nc2cc(Nc3ccnc(-c4cnn(CC(F)(F)F)c4)n3)ncc2-c2ccn(CC(F)F)n2)CC1", 29.5),
    ("Cc1nn(CC(F)(F)F)cc1-c1cc(Nc2ncc(-c3ccn(C(F)F)n3)c(N[C@H]3CC[C@@](C)(O)CC3)n2)ccn1", 12.6),
    ("Cc1nn(CC(F)(F)F)cc1-c1cc(Nc2ncc(-c3ccn(CC(F)(F)F)n3)c(N[C@H]3CC[C@@](C)(O)CC3)n2)ccn1", 17.4),
]

Considering "Cn1nc(-c2cnc(Nc3ccnc(-c4cnn(CC(F)F)c4)n3)cc2N[C@H]2CC[C@@H](CCO)CC2)cc1C(F)(F)F" , its IC50 with EGFR del19/C797S (Homo sapiens, UniProt P00533, C797S/DEL746-750) was recorded as 16.5

Considering "CC(C)Nc1nc(Nc2ccnc(-c3cnn(S(=O)(=O)C4CC4)c3)c2)ncc1-c1ccn(C(F)F)n1" , its IC50 with EGFR del19/C797S (Homo sapiens, UniProt P00533, C797S/DEL746-750) was recorded as 404

----------
IC50 reference
molecular target: EGFR wildtype (WT) (Homo sapiens, UniProt P00533); assay: Biochemical EGFR kinase assay (Lance Ultra TR-FRET), wildtype; conditions: Km ATP; read-out: IC50 WT (nM) Km ATP
Sequence (P00533 25-1210): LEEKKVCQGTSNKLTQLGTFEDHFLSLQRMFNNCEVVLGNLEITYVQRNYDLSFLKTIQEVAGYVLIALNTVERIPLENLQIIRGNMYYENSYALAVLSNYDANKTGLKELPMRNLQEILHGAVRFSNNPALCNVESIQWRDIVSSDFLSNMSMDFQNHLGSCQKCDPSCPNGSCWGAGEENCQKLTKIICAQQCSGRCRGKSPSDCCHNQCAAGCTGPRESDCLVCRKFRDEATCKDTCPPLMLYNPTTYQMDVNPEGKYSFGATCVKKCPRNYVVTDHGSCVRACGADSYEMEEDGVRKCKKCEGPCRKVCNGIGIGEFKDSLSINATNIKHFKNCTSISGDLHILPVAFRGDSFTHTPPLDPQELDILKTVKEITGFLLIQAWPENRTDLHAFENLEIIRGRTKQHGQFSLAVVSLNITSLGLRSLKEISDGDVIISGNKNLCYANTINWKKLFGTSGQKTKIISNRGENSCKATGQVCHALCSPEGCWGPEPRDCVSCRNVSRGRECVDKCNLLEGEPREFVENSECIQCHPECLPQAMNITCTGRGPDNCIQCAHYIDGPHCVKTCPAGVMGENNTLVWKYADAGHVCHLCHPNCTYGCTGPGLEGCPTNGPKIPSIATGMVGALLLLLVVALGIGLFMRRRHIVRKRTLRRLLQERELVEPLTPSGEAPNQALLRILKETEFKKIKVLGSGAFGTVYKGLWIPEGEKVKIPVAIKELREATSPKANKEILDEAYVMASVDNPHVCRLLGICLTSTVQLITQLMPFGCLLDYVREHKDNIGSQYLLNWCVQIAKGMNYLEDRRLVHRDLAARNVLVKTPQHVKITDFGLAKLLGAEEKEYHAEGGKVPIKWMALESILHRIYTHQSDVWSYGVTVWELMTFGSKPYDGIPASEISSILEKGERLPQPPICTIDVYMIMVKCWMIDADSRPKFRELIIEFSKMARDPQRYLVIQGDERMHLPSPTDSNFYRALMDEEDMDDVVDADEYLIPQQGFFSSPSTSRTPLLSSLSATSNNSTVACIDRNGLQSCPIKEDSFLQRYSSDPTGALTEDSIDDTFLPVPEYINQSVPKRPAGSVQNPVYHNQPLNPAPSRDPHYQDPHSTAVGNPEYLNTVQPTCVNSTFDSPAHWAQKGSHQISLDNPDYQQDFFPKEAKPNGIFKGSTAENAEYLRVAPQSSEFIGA

Noted for O=S(=O)(C1CC1)n1cc(-c2nccc(Nc3cc(NC4CCC(F)(CO)CC4)c(-c4cc5n(n4)CCCC5)cn3)n2)cn1 (stereo not drawn) : its IC50 reads 14.9 nM

Noted for "O=S(=O)(C1CC1)n1cc(-c2nccc(Nc3cc(N[C@H]4CC[C@@H](CO)CC4)c(-c4ccn(C(F)F)n4)cn3)n2)cn1" : its IC50 reads 3 nM

Noted for "C[C@]1(F)CC[C@@H](Nc2cc(Nc3ccnc(-c4cnn(S(=O)(=O)C5CC5)c4)n3)ncc2-c2ccn(C(F)F)n2)CC1" : its IC50 reads 720 nM

----------
target: EGFR del19/C797S (Homo sapiens, UniProt P00533, C797S/DEL746-750); assay: Biochemical EGFR kinase assay (Lance Ultra TR-FRET), double mutant del19/C797S; conditions: Km ATP; read-out: IC50 del19/C797S (nM) Km ATP
IC50 reference
Your answer is read as nM, so omit the unit and give the number.

Check out these entries, answers already filled in.
# COMPOUND, RESULT UNIT, NUMERIC READOUT
measured = [
    ("O=S(=O)(C1CC1)n1cc(-c2nccc(Nc3cc(N[C@H]4CC[C@@H](F)CC4)c(-c4ccn(C(F)F)n4)cn3)n2)cn1", "nM", 43.5),
    ("CN(C)CC[C@H]1CC[C@@H](Nc2cc(Nc3ccnc(-c4cnn(S(=O)(=O)C5CC5)c4)n3)ncc2-c2ccn(CC(F)F)n2)CC1", "nM", 0.4),
    ("O=S(=O)(C1CC1)n1cc(-c2nccc(Nc3cc(N[C@H]4CC[C@@H](NCC(F)F)CC4)c(-c4cc5n(n4)CCCC5)cn3)n2)cn1", "nM", 1.8),
]

Considering "OCC[C@H]1CC[C@H](Nc2cc(Nc3ccnc(-c4cnn(CC(F)F)c4)n3)ncc2-c2ccn(C(F)F)n2)CC1" , its IC50 with EGFR del19/C797S (Homo sapiens, UniProt P00533, C797S/DEL746-750) was recorded as 93.9

Considering O=S(=O)(C1CC1)n1cc(-c2nccc(Nc3cc(OC4CCC(O)CC4)c(-c4cnn(C(F)F)c4)cn3)n2)cn1 (stereo not shown) , its IC50 with EGFR del19/C797S (Homo sapiens, UniProt P00533, C797S/DEL746-750) was recorded as 3.4

Considering "CN(C)C[C@H]1CC[C@@H](Nc2cc(Nc3ccnc(-c4cnn(S(=O)(=O)C5CC5)c4)n3)ncc2-c2cc(C(C)(C)O)n(C)n2)CC1" , its IC50 with EGFR del19/C797S (Homo sapiens, UniProt P00533, C797S/DEL746-750) was recorded as 0.2

Considering "C[C@]1(O)CC[C@@H](Nc2cc(Nc3ccnc(-c4cnn(CCF)c4)n3)ncc2-c2ccn(C(F)F)n2)CC1" , its IC50 with EGFR del19/C797S (Homo sapiens, UniProt P00533, C797S/DEL746-750) was recorded as 23

Considering "C[C@]1(O)CC[C@@H](Nc2cc(Nc3ccnc(-c4cnn(CC(F)(F)C(F)F)c4)n3)ncc2-c2ccn(C(F)F)n2)CC1" , its IC50 with EGFR del19/C797S (Homo sapiens, UniProt P00533, C797S/DEL746-750) was recorded as 176

Considering "CN(C)C[C@H]1CC[C@@H](Nc2cc(Nc3ccnc(-c4cnn(S(=O)(=O)C5CC5)c4)n3)ncc2-c2cc3n(n2)CCCC3)CC1" , its IC50 with EGFR del19/C797S (Homo sapiens, UniProt P00533, C797S/DEL746-750) was recorded as 0.2

Considering "O=S(=O)(C1CC1)n1cc(-c2nccc(Nc3cc(N[C@H]4CC[C@@H](CN5CCC5)CC4)c(-c4ccn(C(F)F)n4)cn3)n2)cn1" , its IC50 with EGFR del19/C797S (Homo sapiens, UniProt P00533, C797S/DEL746-750) was recorded as 0.2

Considering "CCS(=O)(=O)n1cc(-c2nccc(Nc3cc(N[C@H]4CC[C@@](C)(O)CC4)c(-c4ccn(C(F)F)n4)cn3)n2)cn1" , its IC50 with EGFR del19/C797S (Homo sapiens, UniProt P00533, C797S/DEL746-750) was recorded as 0.5

Considering "O=S(=O)(C1CC1)n1cc(-c2nccc(Nc3cc(NC[C@H]4C[C@H](O)C4)c(-c4ccn(C(F)F)n4)cn3)n2)cn1" , its IC50 with EGFR del19/C797S (Homo sapiens, UniProt P00533, C797S/DEL746-750) was recorded as 1.9

Considering "O=S(=O)(C1CC1)n1cc(-c2nccc(Nc3cc(N[C@H]4CC[C@H](O)C4)c(-c4ccn(C(F)F)n4)cn3)n2)cn1" , its IC50 with EGFR del19/C797S (Homo sapiens, UniProt P00533, C797S/DEL746-750) was recorded as 1

Considering "Cn1nc(-c2cnc(Nc3ccnc(-c4cnn(S(=O)(=O)C5CC5)c4)n3)cc2N[C@H]2CC[C@@H](CCO)CC2)cc1C(F)(F)F" , its IC50 with EGFR del19/C797S (Homo sapiens, UniProt P00533, C797S/DEL746-750) was recorded as 4.5

Considering "O=S(=O)(C1CC1)n1cc(-c2nccc(Nc3cc(NC4CCC(F)(F)CC4)c(-c4ccn(C(F)F)n4)cn3)n2)cn1" , its IC50 with EGFR del19/C797S (Homo sapiens, UniProt P00533, C797S/DEL746-750) was recorded as 70.2

Considering O=S(=O)(C1CC1)n1cc(-c2nccc(Nc3cc(NC4CCCN(CCF)C4)c(-c4ccn(C(F)F)n4)cn3)n2)cn1 (stereo not shown) , its IC50 with EGFR del19/C797S (Homo sapiens, UniProt P00533, C797S/DEL746-750) was recorded as 43.9

Considering "CN(C)C[C@H]1C[C@H](CNc2cc(Nc3ccnc(-c4cnn(S(=O)(=O)C5CC5)c4)n3)ncc2-c2ccn(CC(F)F)n2)C1" , its IC50 with EGFR del19/C797S (Homo sapiens, UniProt P00533, C797S/DEL746-750) was recorded as 11.5
